meta.source: PubChem BioAssay (NCI)

TGI for assorted compounds
- System: CCRF-CEM leukemia
- protocol.text: NCI tumour cell line growth inhibition, 48 h

compound	target.or.test.system	result.value
C[C@@H]1CCC2[C@@H](C)[C@H](OC(=O)CCC(=O)NCCNC(=O)Cc3cc(=O)oc4cc(N(C)C)ccc34)O[C@@H]3O[C@]4(C)CC[C@@H]1C23OO4 (stereo partly drawn)	CCRF-CEM leukemia	> 75.7 µM
CC(Nc1cc(=O)n(C)c(=O)[nH]1)c1ccccc1 (stereo not drawn)	CCRF-CEM leukemia	> 100 µM

Record summary for `CC(=O)[CH-]C(=O)c1ccccc1.CC(=O)[CH-]C(=O)c1ccccc1.CC12CC3(C)CC(C)(C1)CC([O-])(C2)C3.CC[O-].[Ti+4]` : reported TGI = > 100 µM

---

- System: CAKI-1 renal
- protocol.text: NCI tumour cell line growth inhibition, 48 h
observed.property: TGI (µM)
The answer is to be given in µM; state only the numeric part.

Example entries and their recorded answers appear below.
>>> print(df.to_string())
                                   molecule  observed_property  result_value
0  CN(C)CCN1C(=O)c2cccc3c(-c4ccc5ncn(C6CCCCC6)c5c4)ccc(c23)C1=O                TGI          6.67
1  CCCCCCCCC[C@@H]1C[C@@H]2CCC3C(C(=O)OCCCCNC(=O)OCc4ccccc4)=C(C)NC(=N1)N32 (some centres undefined)                TGI          14.9

Now take the following molecule into account.
Record summary for C#CCOc1cccc(Nc2ncnc3c2ncn3C2CCN(C(=O)CCl)C2)c1 (centres undefined) : reported TGI = 30.7

---

- System: UACC-257 melanoma
- protocol.text: NCI tumour cell line growth inhibition, 48 h
TGI for assorted compounds
The answer is to be given in µM; state only the numeric part.

Example entries and their recorded answers appear below.
                                  structure  observed_property  result_value
0  CC(=O)[CH-]C(=O)c1ccccc1.CC(=O)[CH-]C(=O)c1ccccc1.CC[O-].O=C1C=C([O-])C(=O)c2ccccc21.[Ti+4]                TGI            86
1  CCN(CC)CCNc1ccc2nnn3c4ccc(OC(C)=O)cc4c(=O)c1c23                TGI          24.9
2                      CCCCCCCCCCCCOC(=S)NC                TGI          42.2

Now take the following compound into account.
Record summary for `COC(=O)C[C@](O)(CCC(C)(C)O)C(=O)O[C@@H]1C(OC)=C[C@]23CCCN2CCc2cc4c(cc2[C@H]13)OCO4` : reported TGI = 0.537

---

- System: MOLT-4 leukemia
- protocol.text: NCI tumour cell line growth inhibition, 48 h
TGI for assorted compounds

Example entries and their recorded answers appear below.
>>> df
                                   compound  result_value
0           C/C(=N\Nc1ncnc2ccccc12)c1ccccn1     > 9.41 µM
1  O=C(NN1C(=O)C(Cl)C1c1ccc([N+](=O)[O-])cc1)c1ccccc1O (stereo not drawn)      > 100 µM

Record summary for `Oc1cccc2nc3cc(CN4CCOCC4)c(CN4CCOCC4)cc3nc12` : reported TGI = > 100 µM
